Origin of measurements: paper PMC8750650

Listed compounds paired with reported pIC50
molecular target: CSNK2A1 (Homo sapiens); assay: cell-based
Sequence (P68400 whole entry): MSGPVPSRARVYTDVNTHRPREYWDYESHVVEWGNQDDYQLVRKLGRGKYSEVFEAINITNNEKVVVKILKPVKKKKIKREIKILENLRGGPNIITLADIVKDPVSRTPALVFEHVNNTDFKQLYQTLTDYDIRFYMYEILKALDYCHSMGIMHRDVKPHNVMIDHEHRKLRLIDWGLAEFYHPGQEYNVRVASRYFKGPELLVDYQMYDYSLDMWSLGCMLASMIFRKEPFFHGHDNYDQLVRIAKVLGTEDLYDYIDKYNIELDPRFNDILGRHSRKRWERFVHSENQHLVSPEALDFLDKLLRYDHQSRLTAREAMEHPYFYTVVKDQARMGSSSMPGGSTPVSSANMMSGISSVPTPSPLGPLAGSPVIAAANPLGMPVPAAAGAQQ
pIC50: −log10 of the molar value.
Property name: pIC50

| Compound | Target or test system | Property name | Test value |
| --- | --- | --- | --- |
| CCC(=O)Nc1cc(Nc2cc(NC3CC3)n3ncc(C#N)c3n2)ccc1N1CCCC(NC)C1 (centres unmarked) | CSNK2A1 (Homo sapiens) | pIC50 | 8.70 |
| CC(=O)Nc1ccc2ccn(-c3cc(NCC4CCOC4)n4ncc(C#N)c4n3)c2c1 (centres unmarked) | CSNK2A1 (Homo sapiens) | pIC50 | 7.50 |
| CC(=O)Nc1ccc2ccn(-c3cc(Sc4ccccc4)n4ncc(C#N)c4n3)c2c1 | CSNK2A1 (Homo sapiens) | pIC50 | 5.20 |
| CCC(=O)Nc1cc(Nc2cc(NC3CC3)n3ncc(C#N)c3n2)ccc1N1CCNCC1 | CSNK2A1 (Homo sapiens) | pIC50 | 6.80 |
| CCC(=O)Nc1cc(Nc2cc(NC3CC3)n3ncc(C#N)c3n2)ccc1N(C)CCN1CCCC1 | CSNK2A1 (Homo sapiens) | pIC50 | 7.00 |
| CC(=O)Nc1ccc2ccn(-c3cc(NC4CCN(C(C)=O)CC4)n4ncc(C#N)c4n3)c2c1 | CSNK2A1 (Homo sapiens) | pIC50 | 7.20 |
| CC(=O)Nc1ccc2ccn(-c3cc(N[C@H](C)C#N)n4ncc(C#N)c4n3)c2c1 | CSNK2A1 (Homo sapiens) | pIC50 | 6.90 |
| CC(=O)Nc1ccc2ccn(-c3cc(NC45CC(C4)C5)n4ncc(C#N)c4n3)c2c1 | CSNK2A1 (Homo sapiens) | pIC50 | 6.80 |

====

target: CSNK2A1 (Homo sapiens); experiment: cell-based
Rule: IC50 below 0.2 µM gives yes (1), anything at or above gives no (0).

| Smiles data | Target or test system | Classification |
| --- | --- | --- |
| CC(=O)Nc1ccc2ccn(-c3cc(NCC4CCOCC4)n4ncc(C#N)c4n3)c2c1 | CSNK2A1 (Homo sapiens) | yes (1) |
| CC(=O)Nc1ccc2ccn(-c3cc(NC4(C)CC4)n4ncc(C#N)c4n3)c2c1 | CSNK2A1 (Homo sapiens) | no (0) |
| CC(=O)Nc1ccc2ccn(-c3cc(NCc4cnn(C)c4)n4ncc(C#N)c4n3)c2c1 | CSNK2A1 (Homo sapiens) | yes (1) |
| CC(=O)Nc1ccc2ccn(-c3cc(NC4CC(F)(F)C4)n4ncc(C#N)c4n3)c2c1 | CSNK2A1 (Homo sapiens) | yes (1) |
| CCC(=O)Nc1cc(Nc2cc(NC3CC3)n3ncc(C#N)c3n2)ccc1N(C)CCN | CSNK2A1 (Homo sapiens) | yes (1) |
| CCC(=O)Nc1cc(Nc2cc(NC3CC3)n3ncc(C#N)c3n2)ccc1N(C)CCN1CCCCC1 | CSNK2A1 (Homo sapiens) | no (0) |

====

Endpoint: pIC50. System: CSNK2A2 (Homo sapiens, UniProt P19784). Items follow.
Sequence (P19784 whole entry): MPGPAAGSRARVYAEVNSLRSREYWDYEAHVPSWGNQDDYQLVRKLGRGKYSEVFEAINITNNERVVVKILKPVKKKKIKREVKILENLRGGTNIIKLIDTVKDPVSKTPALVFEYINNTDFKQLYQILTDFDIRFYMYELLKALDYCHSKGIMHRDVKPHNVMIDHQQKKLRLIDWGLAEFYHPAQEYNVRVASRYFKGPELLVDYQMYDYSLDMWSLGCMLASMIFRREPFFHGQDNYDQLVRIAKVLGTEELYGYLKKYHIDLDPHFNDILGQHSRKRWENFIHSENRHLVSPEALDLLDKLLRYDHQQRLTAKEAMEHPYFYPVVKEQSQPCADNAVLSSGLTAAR
pIC50: −log10 of the molar value.
Property name: pIC50

| Compound | Property name | Test value |
| --- | --- | --- |
| CC(=O)Nc1ccc2ccn(-c3cc(N[C@H](C)C#N)n4ncc(C#N)c4n3)c2c1 [Compound 30] | pIC50 | 7.10 |
| CC(=O)Nc1ccc2ccn(-c3cc(NC4CCN(C(C)=O)CC4)n4ncc(C#N)c4n3)c2c1 [Compound 28] | pIC50 | 6.40 |
| CCC(=O)Nc1cc(Nc2cc(NC3CC3)n3ncc(C#N)c3n2)ccc1N1CCCC(NC)C1 (stereo not shown) [Compound 15] | pIC50 | 7.80 |
| CC(=O)Nc1ccc2ccn(-c3cc(NC4(C)CC4)n4ncc(C#N)c4n3)c2c1 [Compound 20] | pIC50 | 5.80 |
| CC(=O)Nc1ccc2ccn(-c3cc(NCc4cnn(C)c4)n4ncc(C#N)c4n3)c2c1 [Compound 29] | pIC50 | 6.70 |
| CC(=O)Nc1ccc2ccn(-c3cc(NCC4CCOC4)n4ncc(C#N)c4n3)c2c1 (stereo not shown) [Compound 25] | pIC50 | 6.60 |
| CC(=O)Nc1ccc2ccn(-c3cc(NC4CC(F)(F)C4)n4ncc(C#N)c4n3)c2c1 [Compound 18] | pIC50 | 7.00 |
